target: IL-17A/F (Homo sapiens, UniProt Q16552+Q96PD4); assay: IL-17A/F HEK-Blue cell assay (SEAP reporter); settings: HEK-Blue IL-17A reporter cells, IL17A/F 5 ng/mL, 20 hours, SEAP read at A630; read-out: HEK-Blue IL17AF (IC50 for IL-17A/F inhibition)
pIC50: −log10 of the molar value.
The entries below are paired with their reported pIC50.

// solved cases for pIC50 follow
| compound | measuredOn | measure | experimentalResult |
| --- | --- | --- | --- |
| CCc1nc2nc([C@@H](NC(=O)c3ccnn3C)C3CCC(F)(F)CC3)cn2nc1C[C@H]1C[C@@H](C(F)(F)F)CNC1=O | IL-17A/F (Homo sapiens, UniProt Q16552+Q96PD4) | pIC50 | < 6.00 |
| O=C(N[C@H](c1cn2nc(C[C@H]3C[C@@H](C(F)(F)F)CNC3=O)c(C3CCOCC3)nc2n1)C1CCC(F)(F)CC1)c1nonc1OCC(F)(F)F | IL-17A/F (Homo sapiens, UniProt Q16552+Q96PD4) | pIC50 | 6.00 to 7.00 |

For reference, reported pIC50 for CCn1nccc1C(=O)N[C@H](c1cn2nc(CC3CC(F)(F)CNC3=O)c(N3CCOCC3)nc2n1)C1CCC(F)(F)CC1 (single isomer, unassigned) [Compound 65] stands at < 6.00

====

Target: IL-17A/F (Homo sapiens, UniProt Q16552+Q96PD4)
Sequence (Q16552 24-155): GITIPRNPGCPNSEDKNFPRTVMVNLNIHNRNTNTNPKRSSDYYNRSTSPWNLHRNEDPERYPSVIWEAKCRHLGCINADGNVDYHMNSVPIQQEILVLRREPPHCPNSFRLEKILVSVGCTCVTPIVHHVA
Sequence (Q96PD4 31-163): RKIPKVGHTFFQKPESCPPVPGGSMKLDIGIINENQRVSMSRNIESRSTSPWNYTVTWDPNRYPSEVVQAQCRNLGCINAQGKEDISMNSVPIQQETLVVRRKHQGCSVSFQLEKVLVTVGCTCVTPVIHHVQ
Assay: IL-17A/F HEK-Blue cell assay (SEAP reporter)
Conditions: HEK-Blue IL-17A reporter cells, IL17A/F 5 ng/mL, 20 hours, SEAP read at A630; read-out: HEK-Blue IL17AF (IC50 for IL-17A/F inhibition)
pIC50: −log10 of the molar value.
The entries below are paired with their reported pIC50.

| compound | pIC50 |
| --- | --- |
| CCn1nccc1C(=O)N[C@H](c1cn2nc(C[C@@H]3CCCNC3=O)c(C3CCOCC3)nc2n1)C1CCC(F)(F)CC1 [Compound 380] | < 6.00 |
| CCn1nccc1C(=O)N[C@H](c1cn2nc(C[C@H]3C[C@@H](C(F)(F)F)NC3=O)c(C3CCOCC3)nc2n1)C1CCC(F)(F)CC1 [Compound 151] | 6.00 to 7.00 |
| CC(C)n1nccc1C(=O)N[C@H](c1cn2nc(CC3C[C@@H](C(F)(F)F)CNC3=O)c(N3CCOCC3)nc2n1)C1CCC(F)(F)CC1 (single isomer, unassigned) [Compound 80] | < 6.00 |
| CCn1nccc1C(=O)N[C@H](c1cn2nc(C[C@H]3C[C@@H](C(F)(F)F)CNC3=O)c(N3CCC(F)(F)CC3)nc2n1)C1CCC(F)(F)CC1 [Compound 192] | 6.00 to 7.00 |

Consider the record given below.
For reference, reported pIC50 for CCn1nccc1C(=O)N[C@H](c1cn2nc(C[C@H]3C[C@@H](C(F)(F)F)CC3=O)c(C3CCOCC3)nc2n1)C(C1CC1)C1CC1 [Compound 281] stands at 6.00 to 7.00
